# experimental-details: binders of probe aFSTL3 on microarray, primary screen, stem cell growth factor project, biochemical, small-molecule microarray, fluorescence 635/667 (AID 1064);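 also: measures binding of the biotinylated anti-FSTL3 antibody to printed compounds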
# run-conditions: higher = more signal
readout-name: composite z-score
Could you respond with only the numeric value?

Example entries and their recorded answers appear below.
compound	composite z-score
CC(=O)n1cc(C(O)C2C=CC3C(=O)N(Cc4ccccc4)C(=O)C3N2n2cnnc2)c2ccccc21 (configuration not stated)	-0.317
COC(=O)Cn1c(C(=O)N2CCCC2)cc2c1C[C@H]1CN(C(=O)c3ccccc3)[C@@](Cc3ccc(F)cc3)(C(=O)OC)[C@@H]21	-0.366
[N-]=[N+]=NCc1ccccc1C[C@@]1(C(=O)NCCN2CCOCC2)N=C(c2ccc(OCCCO)cc2)O[C@@H]1c1ccccc1N=[N+]=[N-]	0.646
COc1cc(CO)cc(I)c1O[C@H]1C=C(C(=O)NCCO)C[C@@H](NCc2ccccc2F)[C@@H]1O	-0.267
O=C1O[C@@H](c2ccccc2)[C@@H](c2ccccc2)N2[C@@H](c3ccc(O)cc3)[C@]3(C(=O)Nc4ccc(C#CC5=CCCCC5)cc43)[C@@H](C(=O)N3CCN(c4ncccn4)CC3)[C@H]12	-0.397
O=C(O)[C@H](Cc1ccccc1)n1cc(-c2ccccn2)nn1	-0.158

Continue with the compound presented below.
For this compound ( CC(C)(C)OC(=O)CC[C@@]1(C(=O)O)N=C(c2ccc(OCCCO)cc2)O[C@@H]1c1ccccc1 ), measured composite z-score is 0.308
